Sourced from patent US20220073643A1

assay_target: human Claudin18.2 (human)
experiment: cell-based or functional assay
The following binders are shown together with reported CDC % Relative activity values.

binder	CDC % Relative activity [%]
198F10B8 (antibody, V domains shown) VH: QAYLQQSGAELVRSGASVRMSCKASGYTFSSYNMHWVKQTPGQGLEWIGYIYPGNGGTNYNQKFKDKATLTADTSSSTAFIQISSLTSEDSAVYFCLTGRGFAYWGQGTLVTVSA VL: DIVMTQSPSSLTVTAGERVTMSCKSSQSLFNSGNQKNYLTWYQQKPGQPPKLLIYRASTRESGVPDRFTGSGSGTDFTLTISSVQAEDLAVYYCQNDYSYPLTFGVGTKLELK	526
257F1E11 (antibody, V domains shown) VH: QAYLQQSGAELVRSGASVKMSCKASGYTFTSHNIHWVKQTPRQGLEWIGYIYPGNGGTNYNQKFKGKATLTADTSSSTAYMQISSLTSEDSAVYFCTRDYYGNSFAYWGQGTLVTVSA VL: DIVMTQSPSSLTEKAGERVSMSCKSSQSLFNSGNQKNYLTWYQQKPGQPPKLLIYWASTRESGVPDRFTGSGSGTDFTLTISSVQAEDLAIYYCQNDYWYPFTFGAGTKLELK	174
